FYI, the data here is from the supplement of paper PMC12764529.

# Procedure Details: folding stability dG unfold (combined trypsin and chymotrypsin); higher = more stable
Give 1.0 when the value for folding stability dG unfold is at least 2 kcal/mol. Give 0.0 when it is less.

{"Query Sequence": "SMVIPPGSRAEFRLEDVPVRLEVEEGSGKVHFRVFSPENPDEEVFEAEFDINDLKPLDLPPELREAFEKESA [r9_1051_TrMRF]", "Category Label": 0.0}
{"Query Sequence": "SMKEPPKVTIEIEYDEETETVRVRITLEDGTEIEVEVEAENKEEALREAIREALKKIFPELTDEQIEKLLSA [r9_634_TrROS_Hall]", "Category Label": 1.0}
{"Query Sequence": "SAGGSAGGSAGWNIEPKPEPERDPDGNPQPRMEIKIRVPPPTAEQAQEWAKENGLPVTVYSAGGSAGGSAGG [r17_114_TrROS]", "Category Label": 0.0}
{"Query Sequence": "SAGMVTYTVTVPYAPAGKRVRVTLFDEGKEIASFEGVENAPYNQTFTFTAPPFTIRIEYEDGSVDPLPASAG [r5_646_TrMRF]", "Category Label": 1.0}
{"Query Sequence": "SDPNKPWTAEEIAKIIEEKILEEFDVEEIIPKELKVFPKEGTVKVKMLVKYKGEPGKYFELEVEISPEELSA [r9_1002_TrMRF]", "Category Label": 1.0}
{"Query Sequence": "SAGGSAGGSAGGSMTVTVEPVPNSDKLRVTTTTTFLNPSNGQVTSTSTSTTVVPPGVAPSAGGSAGGSAGGS [r10_86_JUSTAS]", "Category Label": 0.0}
{"Query Sequence": "SAGGSAGGSAGGAKKAIEEAIKAGYLPYEDPESGKIHFYFPTPDGTIHKLTLFVAPEEESAGGSAGGSAGGS [r10_1173_TrMRF]", "Category Label": 0.0}
{"Query Sequence": "SAGGPMKPFLKNFSGPEEAIAFVNKLREELKGPVGLTLIFPDGSVIEVVDPQKLESIDNFEVIVTVSESAGG [r13_620_JUSTAS]", "Category Label": 0.0}
{"Query Sequence": "SAGGSAGGSAGGKTYTAEELRSLPPGAKITLADGKVIEVSIEQLEKEIKPGDTVRIERVPSAGGSAGGSAGG [r7_643_TrROS_Hall]", "Category Label": 0.0}
{"Query Sequence": "SAGGSAGGSAGGMPVPRRLEIVVEPEYTEEEIEKIKKELIENGNPEIEEVVVVLPPNLESAGGSAGGSAGGS [r10_233_JUSTAS]", "Category Label": 0.0}
{"Query Sequence": "SAGGPMWQVRLRDPDGKKRTINIQQTNGNMYVRIQDKDGEPVKEHPVDSAEEALDKLEDHGYKVEVYPSAGG [r13_315_TrROS]", "Category Label": 0.0}
{"Query Sequence": "SAGGSAKKKKGKKKKKIKKIKIKLKLPPGAEIVKIDKEKGVIYIRNKKTNKIYKIDLKTGKIVEIPSAGGSA [r15_452_TrROS_Hall]", "Category Label": 1.0}
{"Query Sequence": "SAGGSAGGSAGDIDIKVEYNKENGMYRVRASFPDGKEVPIWMPPGQTPEEAKDQAKELLKSAGGSAGGSAGG [r17_161_TrROS]", "Category Label": 0.0}
{"Query Sequence": "MYLVRIKIEYKTEDGEKVEKEITLLVEPSEEEAKEKAEELARKIAEELGLSEEEIKKIEVEVVKLGEELEES [r1_159_TrROS_Hall]", "Category Label": 1.0}
